molecular target: γ-secretase (detergent-solubilized membranes from HeLa cells); test: cell-based or functional assay
Starred links: 1 amine or outer side, 2 acyl side, 3 side chain; linkers in the order of their positions; H or OH if unused. Non-standard residues stand in square brackets, D forms with d. *: point of attachment. dThr(OBz) = D-threonine with an O-benzyl (OBz) group, C[C@H](OCc1ccccc1)[C@@H](N[*:1])C(=O)[*:2]; Thr(OBz) = threonine with O-benzyl ester (OBz); Boc = CC(C)(C)OC(=O)*; Aib = CC(C)(N)C(=O)O
Collected Cell-free Assay IC50 (concentration required for 50% inhibition of Aβ40 production) values appear next to each entry.
QUANTITY NAME: Cell-free Assay IC50 (concentration required for 50% inhibition of Aβ40 production) (nM)

[
  {
    "BINDER": "Boc-[Aib][dV][dV][dI][Aib][dThr(OBz)][dV][Aib][dV][dI][Aib]-OMe (SMILES CC[C@@H](C)[C@@H](NC(=O)[C@H](NC(=O)[C@H](NC(=O)C(C)(C)NC(=O)OC(C)(C)C)C(C)C)C(C)C)C(=O)NC(C)(C)C(=O)N[C@@H](C(=O)N[C@@H](C(=O)NC(C)(C)C(=O)N[C@@H](C(=O)N[C@@H](C(=O)NC(C)(C)C(=O)OC)[C@H](C)CC)C(C)C)C(C)C)[C@H](C)OCc1ccccc1) [D-peptide Boc-Aib-Val-Val-Ile-Aib-Thr(OBz)-Val-Aib-Val-Ile-Aib-OMe (SEQ ID NO:16)]",
    "OBS VALUE": 28
  },
  {
    "BINDER": "Boc-VVI[Aib][Thr(OBz)]V[Aib]VI[Aib]-OMe [L-peptide Boc-Val-Val-Ile-Aib-Thr(OBz)-Val-Aib-Val-Ile-Aib-OMe (SEQ ID NO:15)]",
    "OBS VALUE": 10000
  },
  {
    "BINDER": "Boc-[Aib]VVI[Aib][Thr(OBz)]V[Aib]VI[Aib]-OMe [L-peptide Boc-Aib-Val-Val-Ile-Aib-Thr(OBz)-Val-Aib-Val-Ile-Aib-OMe (SEQ ID NO:16)]",
    "OBS VALUE": 3100
  },
  {
    "BINDER": "Boc-VG[Aib]VVI[Aib][Thr(OBz)]V[Aib]VI[Aib]-OMe [L-peptide Boc-Val-Gly-Aib-Val-Val-Ile-Aib-Thr(OBz)-Val-Aib-Val-Ile-Aib-OMe (SEQ ID NO:18)]",
    "OBS VALUE": 780
  },
  {
    "BINDER": "Boc-[dV]G[Aib][dV][dV][dI][Aib][dThr(OBz)][dV][Aib][dV][dI][Aib]-OMe (SMILES CC[C@@H](C)[C@@H](NC(=O)[C@H](NC(=O)[C@H](NC(=O)C(C)(C)NC(=O)CNC(=O)[C@H](NC(=O)OC(C)(C)C)C(C)C)C(C)C)C(C)C)C(=O)NC(C)(C)C(=O)N[C@@H](C(=O)N[C@@H](C(=O)NC(C)(C)C(=O)N[C@@H](C(=O)N[C@@H](C(=O)NC(C)(C)C(=O)OC)[C@H](C)CC)C(C)C)C(C)C)[C@H](C)OCc1ccccc1) [D-peptide Boc-Val-Gly-Aib-Val-Val-Ile-Aib-Thr(OBz)-Val-Aib-Val-Ile-Aib-OMe (SEQ ID NO:18)]",
    "OBS VALUE": 0.14
  },
  {
    "BINDER": "Boc-L[Aib]VG[Aib]VVI[Aib][Thr(OBz)]V[Aib]VI[Aib]-OMe [L-peptide Boc-Leu-Aib-Val-Gly-Aib-Val-Val-Ile-Aib-Thr(OBz)-Val-Aib-Val-Ile-Aib-OMe (SEQ ID NO:20)]",
    "OBS VALUE": 4700
  },
  {
    "BINDER": "Boc-[dL][Aib][dV]G[Aib][dV][dV][dI][Aib][dThr(OBz)][dV][Aib][dV][dI][Aib]-OMe (SMILES CC[C@@H](C)[C@@H](NC(=O)[C@H](NC(=O)[C@H](NC(=O)C(C)(C)NC(=O)CNC(=O)[C@H](NC(=O)C(C)(C)NC(=O)[C@@H](CC(C)C)NC(=O)OC(C)(C)C)C(C)C)C(C)C)C(C)C)C(=O)NC(C)(C)C(=O)N[C@@H](C(=O)N[C@@H](C(=O)NC(C)(C)C(=O)N[C@@H](C(=O)N[C@@H](C(=O)NC(C)(C)C(=O)OC)[C@H](C)CC)C(C)C)C(C)C)[C@H](C)OCc1ccccc1) [D-peptide Boc-Leu-Aib-Val-Gly-Aib-Val-Val-Ile-Aib-Thr(OBz)-Val-Aib-Val-Ile-Aib-OMe (SEQ ID NO:20)]",
    "OBS VALUE": 16
  }
]
